Values were extracted from PubChem BioAssay (NCI).

tested on: HL-60(TB) leukemia; assay: NCI tumour cell line growth inhibition, 48 h; in the data active = GI50 below about 0.43 µM; inactive = the rest
Write down one outcome, taken from active, inactive

Sample answers from the record:
COc1cc(N2C(=O)[C@H](O)C2c2ccc(SC)cc2)cc(OC)c1OC (some centres undefined)
active
O=C1OCC2=C1C(c1ccc(Cl)c(Cl)c1)c1cc3c(cc1N2CCO)OCCO3 (centres undefined)
active
O=C(OCc1ccc2ccccc2n1)c1cn(C2CC2)c2cc(N3CCN(Cc4ccc5ccccc5n4)CC3)c(F)cc2c1=O
inactive

# input Which outcome was entered for the molecule O=C1NC(=O)C(N2C(=O)c3ccccc3C2=O)CC1O (centres undefined) in this test?
# output inactive

---

system: 786-0 renal; assay: NCI tumour cell line growth inhibition, 48 h
Where a SMILES comes first, the peptide text is derived from it. [ ]: non-standard residue; d: D form. The star is where a group is joined. NMeV = CN[C@H](C(=O)O)C(C)C; X29 = COc1ccc(CN*)c(OC)c1; Octanoyl = CCCCCCCC(=O)*; dNMeA = CN[C@H](C)C(=O)O
Collected TGI values appear next to each entry.

Please review the following examples before continuing.
O=C1C(=C([O-])c2ccccc2)C(=O)c2ccccc21.O=C1C(=C([O-])c2ccccc2)C(=O)c2ccccc21.[Fe+2]
> 100 µM
CCCCCCCC(=O)N[C@H](C(=O)N[C@H](C(=O)N(C)[C@H](C(=O)N1CCC[C@H]1C(=O)N(C)[C@H](C)C(=O)NCc1ccc(OC)cc1OC)C(C)C)C(C)C)C(C)C (Octanoyl-VV[NMeV]P[dNMeA]-X29)
> 100 µM
NC(=O)c1csc(C2OC(CO)C(O)C2O)n1 (centres undefined)
3460 µM
O=C1CCCN1C(=O)CS(=O)(=O)c1ccccc1
> 100 µM
O=C1c2c(c3c4ccccc4[nH]c3c3ccc4ccccc4c23)C(=O)N1CCN1CCNCC1
3.21 µM
O=C1CCC(N2Cc3cc(CNC(=O)C(F)(F)c4ccc(Cl)cc4)ccc3C2=O)C(=O)N1 (centres undefined)
> 100 µM
CO[C@H]1CC(O[C@@H]2/C(C)=C/C[C@@H]3C[C@@H](C[C@]4(C=C[C@H](C)[C@@H](C5CCCCC5)O4)O3)OC(=O)[C@@H]3C=C(C)[C@@H](O)[C@H]4OC/C(=C\C=C\[C@@H]2C)[C@]43O)O[C@@H](C)C1O[C@H]1C[C@H](OC)[C@@H](O)[C@H](C)O1 (some centres undefined)
3.14 µM
CCc1ccc2c(c1)N(CCO)C1=C(C(=O)OC1)C2c1cccc(Br)c1 (centres undefined)
14.7 µM
O=C(/C=C/c1ccccc1)CCN1CCOCC1
18.8 µM
COc1cc(N2C(=O)[C@H](O)C2c2ccc(SC)cc2)cc(OC)c1OC (some centres undefined)
55.8 µM

Switching to the query record.
# input State the recorded TGI for this entry: `CO/C(=N\N=C\c1ccc(OC)c(OC)c1)c1ccncc1`
# output > 10 µM
